Ref: patent US20240254227A1

- testSystem: CD300A/C/D/E/G (pool of five stable Freestyle HEK cell lines expressing huCD300A, huCD300C, huCD300D, huCD300E and huCD300G)
- testProtocol: flow cytometry, pooled stable Freestyle HEK cells
Cut-off 50 gMFI on gMFI, inclusive. At or above means Condition met; below means Condition not met.

| binder | categoryLabel |
| --- | --- |
| anti-CD300LB antibody CD-05 (antibody, V domains shown) VH: QVQLVQSGAEVKKPGASVKVSCKASGYTFSRYYINWVRQAPGQGLEWMGWINPNSGGTNYAQKFQGRVTMTRDTSTSTVYMELSSLRSEDTAVYYCTTDQLRFGKTGPYYGMDVWGQGTTVTVSS VL: DIQMTQSPSSLSASVGDRVTITCRASQNIGTYLNWYQQKPGKAPKLLIYAASSLQSGVPSRFSGSGSGTDFTLTISSLQPEDFATYYCQQSYSDTLTFGGGTKVEIK | Condition met |
| anti-CD300LB antibody CD-06 (antibody, V domains shown) VH: QVQLVQSGAEVKKPGASVKVSCKASGYTFTTYAVHWVRQAPGQGLEWMGIVNPNSGGTNYAQKFQGRVTMTRDTSTSTVYMELSSLRSEDTAVYYCARDIVPMNNFYNYYYGMDVWGQGTTVTVSS VL: DIQMTQSPSSLSASVGDRVTITCRASQSISSYLNWYQQKPGKAPKLLIYATSTLQSGVPSRFSGSGSGTDFTLTISSLQPEDFATYYCQQSYRIPYTFGQGTKVEIK | Condition met |
| anti-CD300LB antibody CD-08 (antibody, V domains shown) VH: EVQLLESGGGLVQPGGSLRLSCAASGFTFSNAWMSWVRQAPGKGLEWVSVISGSGGRTYYADSVKGRFTISRDNSKNTLYLQMNSLRAEDTAVYYCARDGTTVAPKGMDVWGQGTTVTVSS VL: DIQMTQSPSSLSASVGDRVTITCQASQDINNYVNWYQQKPGKAPKLLIYAASNLQSGVPSRFSGSGSGTDFTLTISSLQPEDFATYYCQQSYSPPYTFGQGTKLEIK | Condition met |
| anti-CD300LB antibody CD-01 (antibody, V domains shown) VH: RVQLQQSGAELVRPGASVTLSCKASGFTFTDFEMHWVKKTPVHGLEWIGAIDPESGNTAYNQKFRGKATLTADKSSSTAYMELRYLTSEDSAVYYCTPLISGADYWGQGTTLTVSS VL: DVVMTQSPLSLPVSLGDQASISCRSSQSLVHSDGNTYLYWYLQKPGQSPKLLIYKVSNRFSGVPDRFSGSGSGTDFTFKISRVGAEDLGVYFCSQSTHVPWTFGGGTKLEII | Condition not met |
| anti-CD300LB antibody CD-09 (antibody, V domains shown) VH: QVQLVQSGAEVKKPGASVKVSCKASGYTFTTYAVHWVRQAPGQGLEWMGIINPNSGGTNYAQKFQGRVTMTRDTSTSTVYMELSSLRSEDTAVYYCARDIVPMNNFYNYYYGMDVWGQGTTVTVSS VL: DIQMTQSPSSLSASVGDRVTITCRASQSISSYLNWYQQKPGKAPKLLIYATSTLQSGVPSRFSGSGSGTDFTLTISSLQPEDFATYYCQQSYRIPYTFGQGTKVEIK | Condition not met |

[ask] Given anti-CD300LB antibody CD-07 (antibody, V domains shown) VH: QVQLVQSGAEVKKPGASVKVSCKASGYTFTNYRMHWVRQAPGQGLEWMGWINPNSGGTIYAQKFQGRVTMTRDTSTSTVYMELSSLRSEDTAVYYCARDLDYWGQGTLVTVSS VL: DIQMTQSPSSLSASVGDRVTITCQASQDISNYLNWYQQKPGKAPKLLIYGASSLQSGVPSRFSGSGSGTDFTLTISSLQPEDFATYYCQQSYSTPWTFGPGTKVEIK , state whether its gMFI is at least 50 gMFI.
[reply] Condition not met

[ask] Given anti-CD300LB antibody CD-04 (antibody, V domains shown) VH: QVQLQQSGAELVRPGASVTLSCRASGYTFTDFEMHWVKQTPLHGLEWIGAIAPETGGTAYNQKFKGKAILTADKSSSTAYVELRSLTSEDSAVYFCTRLGGMDYWGQGTSVTVSS VL: DVVMTQTPLSLPVSLGDQASISCRSSQTLVHNNGNTYLYWYLQKPGQSPKLLIYQVSNRFFGVPDRFSGSGSGTDFTLKISRVEAEDLGLYFCSQSTHVPWTFGGGTKLEIK , state whether its gMFI is at least 50 gMFI.
[reply] Condition met
